Measured values drawn from patent US20210130436A1 for this set.

target: T1, human PD-L1 (human, UniProt Q9NZQ7 19-290); experiment: flow cytometry, CHO cells stably expressing PD-L1
T1 construct: also called huPD-L1; CD274
T1 sequence (Q9NZQ7 19-290): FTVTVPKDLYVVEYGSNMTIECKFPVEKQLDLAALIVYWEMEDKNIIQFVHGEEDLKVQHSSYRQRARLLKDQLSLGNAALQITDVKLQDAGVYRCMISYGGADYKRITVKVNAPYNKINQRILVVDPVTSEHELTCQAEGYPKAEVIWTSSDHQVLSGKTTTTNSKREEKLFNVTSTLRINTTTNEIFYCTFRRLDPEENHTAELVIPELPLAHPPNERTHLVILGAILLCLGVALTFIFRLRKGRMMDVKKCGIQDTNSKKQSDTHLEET
# 1.0 = Fold change to WT CD80 below 80 fold (exclusive); 0.0 = Fold change to WT CD80 at/above 80 fold

Solved cases below.
CD80 IgV-Fc T13R/Q33R/E35D/M47L/V68M (Fc fusion, not shown: a dimerising Fc or GST) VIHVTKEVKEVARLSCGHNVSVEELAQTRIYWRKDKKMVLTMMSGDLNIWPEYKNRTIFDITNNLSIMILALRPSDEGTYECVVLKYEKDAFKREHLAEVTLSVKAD | 0.0
CD80 IgV-Fc T13R/Q33R/E35D/M38I/M47L/V68M/E95V/L97Q (Fc fusion, not shown: a dimerising Fc or GST) VIHVTKEVKEVARLSCGHNVSVEELAQTRIYWRKDKKIVLTMMSGDLNIWPEYKNRTIFDITNNLSIMILALRPSDEGTYECVVLKYEKDAFKRVHQAEVTLSVKAD | 0.0
CD80 WT IgV-Fc (Fc fusion, not shown: a dimerising Fc or GST, Wild-type control; also called WT CD80-IgV-Fc) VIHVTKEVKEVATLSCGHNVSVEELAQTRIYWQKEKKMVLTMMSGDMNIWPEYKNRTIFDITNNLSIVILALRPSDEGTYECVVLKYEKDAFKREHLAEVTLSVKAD | 1.0
CD80 IgV-Fc T13R/Q33R/E35D/M38I/M47L/V68M (Fc fusion, not shown: a dimerising Fc or GST) VIHVTKEVKEVARLSCGHNVSVEELAQTRIYWRKDKKIVLTMMSGDLNIWPEYKNRTIFDITNNLSIMILALRPSDEGTYECVVLKYEKDAFKREHLAEVTLSVKAD | 0.0

Query string: Does the reported Fold change to WT CD80 of the following binder sit strictly below 80 fold? CD80 IgV-Fc T13R/Q33R/E35D/M38I/M47L/V68M/L85M (Fc fusion, not shown: a dimerising Fc or GST) VIHVTKEVKEVARLSCGHNVSVEELAQTRIYWRKDKKIVLTMMSGDLNIWPEYKNRTIFDITNNLSIMILALRPSDEGTYECVVMKYEKDAFKREHLAEVTLSVKAD
Result string: 1.0

Query string: Also CD80 IgV-Fc T13R/Q33L/E35D/M47L/V68M/L85M (Fc fusion, not shown: a dimerising Fc or GST) VIHVTKEVKEVARLSCGHNVSVEELAQTRIYWLKDKKMVLTMMSGDLNIWPEYKNRTIFDITNNLSIMILALRPSDEGTYECVVMKYEKDAFKREHLAEVTLSVKAD , if possible.
Result string: 1.0

Query string: Also CD80 IgV-Fc T13R/Q33L/E35D/M47V/T62S/V68M/L85M (Fc fusion, not shown: a dimerising Fc or GST) VIHVTKEVKEVARLSCGHNVSVEELAQTRIYWLKDKKMVLTMMSGDVNIWPEYKNRTIFDISNNLSIMILALRPSDEGTYECVVMKYEKDAFKREHLAEVTLSVKAD , if possible.
Result string: 1.0

Query string: Also CD80 IgV-Fc T13R/Q27L/Q33L/E35D/T41S/M47V/N48K/V68M/L85M (Fc fusion, not shown: a dimerising Fc or GST) VIHVTKEVKEVARLSCGHNVSVEELALTRIYWLKDKKMVLSMMSGDVKIWPEYKNRTIFDITNNLSIMILALRPSDEGTYECVVMKYEKDAFKREHLAEVTLSVKAD , if possible.
Result string: 1.0

Query string: Also CD80 IgV-Fc T13R/Q33R/E35D/M47L/V68M/L85M (Fc fusion, not shown: a dimerising Fc or GST) VIHVTKEVKEVARLSCGHNVSVEELAQTRIYWRKDKKMVLTMMSGDLNIWPEYKNRTIFDITNNLSIMILALRPSDEGTYECVVMKYEKDAFKREHLAEVTLSVKAD , if possible.
Result string: 0.0
